Where do these numbers come from? They come from patent US6121296A.

Please respond with reported Km /KI IAG-nucleoside hydrolase for every item in the list.
molecular target: IAG-nucleoside hydrolase (Trypanosoma brucei, UniProt Q57ZL6); assay: Inhibition of IAG-nucleoside hydrolase, initial rates
Sequence (Q57ZL6 entry or part of it): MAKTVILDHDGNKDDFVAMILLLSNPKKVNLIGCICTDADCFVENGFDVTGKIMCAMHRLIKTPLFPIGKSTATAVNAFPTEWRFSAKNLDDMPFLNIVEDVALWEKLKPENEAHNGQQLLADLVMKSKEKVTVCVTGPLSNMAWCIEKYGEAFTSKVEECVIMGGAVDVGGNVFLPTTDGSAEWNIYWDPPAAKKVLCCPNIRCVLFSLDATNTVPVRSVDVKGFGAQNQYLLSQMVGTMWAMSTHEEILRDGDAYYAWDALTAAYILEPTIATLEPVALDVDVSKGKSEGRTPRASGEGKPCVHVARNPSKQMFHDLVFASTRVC

Each compound below has a reported value. Please supply its Km /KI IAG-nucleoside hydrolase.
1. O=[N+]([O-])c1cccc([C@@H]2N[C@H](CO)[C@@H](O)[C@H]2O)c1 [III]
2. O=C(O)c1ccc([C@@H]2N[C@H](CO)[C@@H](O)[C@H]2O)cc1 [VI]
3. O=[N+]([O-])c1ccc([C@@H]2N[C@H](CO)[C@@H](O)[C@H]2O)cc1 [IV]

OUT:
["< 0.05", "< 0.04", "< 0.05"]
